# Test system: M14
# protocol-details: NCI tumour cell line growth inhibition, 48 h
Active and inactive are the calls of the source. No stated cut-off is given here; in the data, active = GI50 up to about 1.1 µM and inactive = higher.
Entries and their measured GI50 follow.
readout-kind: GI50

compound: C=CCNC(=O)N(CCCCC(NC(C)=O)C(=O)NCc1ccccc1)Cc1ccccc1 (centres undefined)
observed: > 100 µM (inactive)
--
compound: CC(C)(C)c1ccc(O)c(C(c2ccc([N+](=O)[O-])cc2)c2cc(C(C)(C)C)ccc2O)c1
observed: 1.68 µM (inactive)
--
compound: COCOc1ccc(C(=O)Oc2cccc3c2OC(C)(C)O3)c(OCOC)c1
observed: 89.1 µM (inactive)
--
compound: Cc1cc(N(CCC#N)CCC#N)ccc1/N=N/c1ccc([N+](=O)[O-])cc1
observed: > 100 µM (inactive)
--
compound: Cc1cccc(C)c1NC(=O)CCCC(=O)CC(=O)/C=C/c1ccccc1
observed: > 100 µM (inactive)
--
compound: CC1CC[C@]2(C(=O)O)CCC3(C)C(=CC(=O)C4[C@@]5(C)CCC(=O)C(C)(C)C5CC[C@]43C)[C@@H]2[C@H]1C (some centres undefined)
observed: 29.5 µM (inactive)
--
compound: COC(=O)C1=C(O)C(C(=O)OC)[C@@]2(O)[C@@H](C(=O)OC)CC[C@@H]1[C@@H]2C(=O)OC (some centres undefined)
observed: 22.6 µM (inactive)
--
compound: Cc1cc(-c2ccc(Cl)cc2)c(C#N)c(=S)n1C1OC(CO)C(O)C(O)C1O (centres undefined)
observed: > 100 µM (inactive)
--
compound: CC(Oc1ccc(Oc2cnc3ccc(Cl)cc3n2)cc1)C(=O)O (centres undefined)
observed: > 91.6 µM (inactive)

====

# System: K562
# protocol-details: NCI tumour cell line growth inhibition, 48 h
Active and inactive are the calls of the source. No stated cut-off is given here; in the data, active = GI50 up to about 1.1 µM and inactive = higher.
Outcomes: 1 for active, 0 for inactive

molecule: COC([C@@H](OC(=O)c1ccccc1)[C@H](OC(=O)c1ccccc1)C(O)COC(=O)c1ccccc1)n1cc(C)c(=O)[nH]c1=O (stereo partly specified)
label: 0
//
molecule: CC1=C(c2cc(C(=O)Nc3cccc(C(F)(F)F)c3)ncn2)Sc2ccccc2N1
label: 0
//
molecule: CCOC(=O)C1C(NC(N)=O)N(Cc2ccccc2)C(=O)N1Cc1ccccc1 (stereo unspecified)
label: 0
//
molecule: COc1cc2c(cc1-c1coc3cc(OCC=C(C)C)ccc3c1=O)OCO2
label: 0
//
molecule: N=C(N)SC1c2ccccc2-c2cc([N+](=O)[O-])ccc21 (stereo unspecified)
label: 0
//
molecule: C=C(C)C(=O)OC1C/C(CO)=C\C(O)C/C(C)=C/C2OC(=O)C(=C)C21 (stereo unspecified)
label: 0
//
molecule: CC1(C)CC(=O)C(CC(C(=O)C(=O)Nc2cc(C(F)(F)F)ccc2Cl)C(=O)c2ccco2)C(=O)C1 (stereo unspecified)
label: 0
//
molecule: COc1ccc(OC(C(=O)O)c2ccccc2)c2c1CCCC2=O (stereo unspecified)
label: 0
//
molecule: CC[N+]1(C)CCC(O)(/C=C/c2ccc(Cl)cc2)C(C(=O)/C=C/c2ccc(Cl)cc2)C1 (stereo unspecified)
label: 0
//
molecule: C#CC(O)/C=C/C(O)CCCC(O)CC#CC(O)C#CCCCCC(O)/C=C/CCCC(=O)CCCCCCCCCCCCCCCC(O)C(O)C#CC(=O)O (stereo unspecified)
label: 0
//
molecule: Cc1oc2c(C)c3oc(=O)cc(C)c3cc2c1CN1C(=O)C2OCCOCCOCCOCCOCCO[C@H]2C1=O (stereo partly specified)
label: 0
//
molecule: C/C(=N\Nc1nc2ccccc2o1)c1ccc2ccccc2n1
label: 0
//
molecule: COC(=O)CCC(NC(=O)C(C)NC(=O)COC1C(O)C(OC(=O)CCNc2c3ccccc3nc3cccc([N+](=O)[O-])c23)OC(OCc2ccccc2)C1NC(C)=O)C(N)=O (stereo unspecified)
label: 0
//
molecule: COCCOCCOCCC(=O)NC1CC2CCC1(C)C2(C)C (stereo unspecified)
label: 0
//
molecule: CCOC(=O)N1C/C(=C\c2ccc(N(C)C)cc2)C(=O)/C(=C/c2ccc(N(C)C)cc2)C1
label: 0
//
molecule: O=[N+]([O-])c1ccc2c(Nc3ccccc3-c3ccccc3Nc3c4ccccc4nc4cc([N+](=O)[O-])ccc34)c3ccccc3nc2c1
label: 0
//
molecule: O=c1[nH]nc(-c2ccccc2)n1/N=C/c1cccnc1
label: 0
//
molecule: S=C(c1c[nH]c2ccccc12)N1CCCCC1
label: 0
//
molecule: COC1(CC[C@@H](C)COC2OC(CO)C(O)C(O)C2O)OC2C[C@H]3[C@@H]4CC[C@H]5C[C@@H](OC6OC(CO)C(OC7OC(CO)C(O)C(O)C7O)C(O)C6OC6OC(C)C(O)C(O)C6O)[C@H](O)C[C@]5(C)[C@H]4CC[C@]3(C)C2[C@@H]1C (stereo partly specified)
label: 0
//
molecule: CCNc1cc2oc(=O)cc(C(F)(F)F)c2cc1C
label: 0
//
molecule: COc1cc2c(cc1OCCCNC(=O)c1cc3ccccc3[nH]1)N=C[C@@H]1CCCN1C2=O
label: 1
//
molecule: Clc1c(Cl)c(Cl)c2nn(C3CCCO3)nc2c1Cl (stereo unspecified)
label: 0
//
molecule: C[C@H](CCC(=O)O)[C@H]1CC[C@H]2[C@@H]3[C@H](O)[C@H](O)[C@@H]4C[C@H](O)CC[C@]4(C)[C@H]3CC[C@]12C
label: 0
//
molecule: CCC1(O)C(=O)OCc2c1cc1n(c2=O)Cc2cc3cc(OC)c(OC)cc3nc2-1 (stereo unspecified)
label: 0
//
molecule: O=C(C[C@@H]1CCCN2CCCC[C@H]12)N1c2ccccc2Sc2ccc(Cl)cc21
label: 0
//
molecule: C/C(=C1/N=C(c2ccccc2)OC1=O)c1ccc(C)cc1
label: 0
//
molecule: COC(=O)c1sc(C(=O)OC)c2c1C[S+]([O-])C2
label: 0
//
molecule: CN(C)CCNC(=O)c1cccc2c(NC(CCCNC(=N)N)C(=O)O)c3ccccc3nc12 (stereo unspecified)
label: 0
//
molecule: COc1cc(/C=C2/SC(c3ccccc3)N(c3cc(Cl)ccc3Cl)C2=O)cc(OC)c1OC (stereo unspecified)
label: 0
//
molecule: Nc1nccc(-c2c[nH]c3cc(Br)ccc23)n1
label: 0
//
molecule: CNS(=O)(=O)NNS(=O)(=O)c1ccc(C)cc1
label: 0
//
molecule: O=C(/C=C/c1ccccc1Cl)NC1C=Nc2ccc([N+](=O)[O-])cc2NC1 (stereo unspecified)
label: 0
//
molecule: C/C(Cc1ccc2c(c1)OCO2)=N\NC(=O)C(C)Sc1nnc(SC(C)C(=O)N/N=C(\C)Cc2ccc3c(c2)OCO3)s1 (stereo unspecified)
label: 0
//
molecule: CC1=C(C)SC(=C2Sc3c(n(C)c(=O)n(C)c3=O)S2)S1
label: 0
//
molecule: COc1nc2ccc(COc3ccc(C(=O)O)cc3)cc2nc1OC
label: 0
//
molecule: Oc1ccccc1CNCc1nc2ccccc2[nH]1
label: 0
